# Test: Clearance in Han Wistar rat
# Assay type: ADME, organism-based
# Test settings: in vivo
Readout name: clearance (mL/min/kg)

- Compound structure string: "CCCC[C@H](NC(=O)O[C@@H]1C(=O)N(C(=O)c2nnc(C(F)(F)F)s2)CC1(C)C)C(=O)C(=O)Nc1cc[nH]n1"
  clearance (mL/min/kg): 79
- Compound structure string: "CCCC[C@H](NC(=O)O[C@@H]1C(=O)N(S(=O)(=O)c2ccccc2)CC1(C)C)C(=O)C(=O)N[C@H](C)c1ccccc1"
  clearance (mL/min/kg): 27
- Compound structure string: "CCCC[C@H](NC(=O)O[C@@H]1C(=O)N(C(=O)Nc2ccc(C(F)(F)F)cc2)CC1(C)C)C(=O)C(=O)Nc1cc[nH]n1"
  clearance (mL/min/kg): 77
- Compound structure string: "CCCC[C@H](NC(=O)O[C@@H]1C(=O)N(C(=O)c2nc3ccccc3s2)CC1(C)C)C(=O)C(=O)Nc1ccn[nH]1"
  clearance (mL/min/kg): 65
- Compound structure string: "CCCC[C@H](NC(=O)O[C@@H]1C(=O)N(C(=O)Cc2ccccc2)CC1(C)C)C(=O)C(=O)N[C@H](C)c1ccccc1"
  clearance (mL/min/kg): 26

P = CCCC[C@H](NC(=O)O[C@@H]1C(=O)N(C(=O)NCc2ccccc2)CC1(C)C)C(=O)C(=O)N[C@H](C)c1ccccc1
Q = CCCC[C@H](NC(=O)O[C@@H]1C(=O)N(C(=O)Nc2c(C)noc2C)CC1(C)C)C(=O)C(=O)N[C@H](C)c1ccccc1
R = CCCC[C@H](NC(=O)O[C@@H]1C(=O)N(C(=O)c2ccno2)CC1(C)C)C(=O)C(=O)N[C@H](C)c1ccccc1
Request: Kindly order the items shown according to clearance, from the highest value down. Would you mind listing the labels in the order asked for?
Result: Q, P, R

* * *

# Assayed system: Cathepsin K (Homo sapiens)
# Test: Inhibition of recombinant human cathepsin K by fluorescence assay
pIC50: −log10 of the molar value.
Readout name: pIC50

- Compound structure string: "CCCC[C@H](NC(=O)O[C@@H]1C(=O)N(C(=O)c2cc3ccccc3s2)CC1(C)C)C(=O)C(=O)N[C@H](C)c1ccccc1"
  pIC50: 8.55
- Compound structure string: "CCCC[C@H](NC(=O)O[C@@H]1C(=O)N(C(=O)Oc2ccc3ccccc3c2)CC1(C)C)C(=O)C(=O)N[C@H](C)c1ccccc1"
  pIC50: 7.24
- Compound structure string: "CCCC[C@H](NC(=O)O[C@@H]1C(=O)N(C(=O)c2ccccc2)CC1(C)C)C(=O)C(=O)N[C@H](C)c1ccccc1"
  pIC50: 7.19

1 = CCCC[C@H](NC(=O)O[C@@H]1C(=O)N(C(=O)OCc2ccc(-c3ccccc3)cc2)CC1(C)C)C(=O)C(=O)N[C@H](C)c1ccccc1
2 = CCCC[C@H](NC(=O)O[C@@H]1C(=O)N(C(=O)OCCc2ccccc2)CC1(C)C)C(=O)C(=O)N[C@H](C)c1ccccc1
Request: I'd appreciate it if you could identify which of 1 and 2 has the greater pIC50. Your answer should be the label attached to the chosen record.
Result: 1

* * *

# Test: Oral bioavailability in Han Wistar rat
# Assay type: ADME, organism-based
# Test settings: in vivo
Readout name: bioavailability (%)

- Compound structure string: "CCCC[C@H](NC(=O)O[C@@H]1C(=O)N(C(=O)Nc2ccc(C(F)(F)F)cc2)CC1(C)C)C(=O)C(=O)Nc1cc[nH]n1"
  bioavailability (%): 26
- Compound structure string: "CCCC[C@H](NC(=O)O[C@@H]1C(=O)N(C(=O)Cc2ccccc2)CC1(C)C)C(=O)C(=O)N[C@H](C)c1ccccc1"
  bioavailability (%): 29
- Compound structure string: "CCCC[C@H](NC(=O)O[C@@H]1C(=O)N(S(=O)(=O)c2ccccc2)CC1(C)C)C(=O)C(=O)N[C@H](C)c1ccccc1"
  bioavailability (%): 25
- Compound structure string: "CCCC[C@H](NC(=O)O[C@@H]1C(=O)N(C(=O)c2nnc(C(F)(F)F)s2)CC1(C)C)C(=O)C(=O)Nc1cc[nH]n1"
  bioavailability (%): 13
- Compound structure string: "CCCC[C@H](NC(=O)O[C@@H]1C(=O)N(C(=O)Nc2c(C)noc2C)CC1(C)C)C(=O)C(=O)N[C@H](C)c1ccccc1"
  bioavailability (%): 8.8
- Compound structure string: "CCCC[C@H](NC(=O)O[C@@H]1C(=O)N(C(=O)c2nc3ccccc3s2)CC1(C)C)C(=O)C(=O)Nc1ccn[nH]1"
  bioavailability (%): 14
- Compound structure string: "CCCC[C@H](NC(=O)O[C@@H]1C(=O)N(C(=O)NCc2ccccc2)CC1(C)C)C(=O)C(=O)N[C@H](C)c1ccccc1"
  bioavailability (%): 21

P = CCCC[C@H](NC(=O)O[C@@H]1C(=O)N(C(=O)c2ccno2)CC1(C)C)C(=O)C(=O)N[C@H](C)c1ccccc1
Q = CCCC[C@H](NC(=O)O[C@@H]1C(=O)N(C(=O)c2cccnc2)CC1(C)C)C(=O)C(=O)N[C@H](C)c1ccccc1
Request: // max by bioavailability over [ P , Q ] Pick one; state its label.
Result: Q
(Q: 45%, P: 8.6%)

* * *

# Test: Half life in Han Wistar rat iv
# Type: ADME, organism-based
# Test settings: in vivo
Readout name: half-life (h)

- Compound structure string: "CCCC[C@H](NC(=O)O[C@@H]1C(=O)N(C(=O)Cc2ccccc2)CC1(C)C)C(=O)C(=O)N[C@H](C)c1ccccc1"
  Result number: 1.05

1 = CCCC[C@H](NC(=O)O[C@@H]1C(=O)N(C(=O)c2nnc(C(F)(F)F)s2)CC1(C)C)C(=O)C(=O)Nc1cc[nH]n1
2 = CCCC[C@H](NC(=O)O[C@@H]1C(=O)N(C(=O)c2nc3ccccc3s2)CC1(C)C)C(=O)C(=O)Nc1ccn[nH]1
Request: Identify the item whose half-life is the smaller number: 1 or 2 Answer format: the label of the selected item.
Result: 1
(1: 1.35 h, 2: 3 h)

* * *

# Test: Permeability in MDCK cell line
# Type: ADME, cell-based, Canis lupus familiaris
# Test settings: dog
Readout name: Papp (×10⁻⁶ cm/s)

- Compound structure string: "CCCC[C@H](NC(=O)O[C@@H]1C(=O)N(C(=O)NCc2ccccc2)CC1(C)C)C(=O)C(=O)N[C@H](C)c1ccccc1"
  Result units: "×10⁻⁶ cm/s"
  Papp: 21

I = CCCC[C@H](NC(=O)O[C@@H]1C(=O)N(C(=O)c2cccnc2)CC1(C)C)C(=O)C(=O)N[C@H](C)c1ccccc1
II = CCCC[C@H](NC(=O)O[C@@H]1C(=O)N(C(=O)Nc2ccc(C(F)(F)F)cc2)CC1(C)C)C(=O)C(=O)Nc1cc[nH]n1
III = CCCC[C@H](NC(=O)O[C@@H]1C(=O)N(C(=O)c2nnc(C(F)(F)F)s2)CC1(C)C)C(=O)C(=O)Nc1cc[nH]n1
Request: Form: Sort by [Papp] Order [ ascending ] Give the order by naming the labels one after another as requested.
Result: II, III, I

* * *

# Assayed system: Cathepsin K (Homo sapiens, UniProt P43235)
# Sequence (P43235 whole entry): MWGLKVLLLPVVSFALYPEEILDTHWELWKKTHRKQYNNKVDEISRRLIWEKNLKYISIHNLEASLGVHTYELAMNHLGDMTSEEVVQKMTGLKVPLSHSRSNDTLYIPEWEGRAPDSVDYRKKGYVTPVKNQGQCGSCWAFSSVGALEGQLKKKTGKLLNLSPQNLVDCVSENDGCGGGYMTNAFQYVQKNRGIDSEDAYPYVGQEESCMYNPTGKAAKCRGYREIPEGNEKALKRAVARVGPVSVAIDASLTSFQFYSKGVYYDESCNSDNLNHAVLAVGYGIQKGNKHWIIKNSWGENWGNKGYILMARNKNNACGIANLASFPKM
# Test: Inhibition of recombinant human cathepsin K by fluorescence assay
pIC50: −log10 of the molar value.
Readout name: pIC50

- Compound structure string: "CCCC[C@H](NC(=O)O[C@@H]1C(=O)N(C(=O)Nc2ccc(C(F)(F)F)cc2)CC1(C)C)C(=O)C(=O)N[C@H](C)c1ccccc1"
  pIC50: 8.68

P = CCCC[C@H](NC(=O)O[C@@H]1C(=O)N(C(=O)Nc2ccc(C(F)(F)F)cc2)CC1(C)C)C(=O)C(=O)Nc1cc[nH]n1
Q = CCCC[C@H](NC(=O)O[C@@H]1C(=O)N(C(=O)c2ccc3ccccc3c2)CC1(C)C)C(=O)C(=O)N[C@H](C)c1ccccc1
R = CCCC[C@H](NC(=O)O[C@@H]1C(=O)N(C(=O)NCc2ccccc2)CC1(C)C)C(=O)C(=O)N[C@H](C)c1ccccc1
Request: # rank by pIC50, ascending (min first) // rank by listing labels in the order requested
Result: R, Q, P
(R: 8.42, Q: 8.80, P: 9.38)

* * *

# Assayed system: Cathepsin K (Homo sapiens, UniProt P43235)
# Test: Inhibition of recombinant human cathepsin K by fluorescence assay
Readout name: IC50 (nM)

- Compound structure string: "CCCC[C@H](NC(=O)O[C@@H]1C(=O)N(C(=O)Oc2ccccc2)CC1(C)C)C(=O)C(=O)N[C@H](C)c1ccccc1"
  IC50 [nM]: 29
- Compound structure string: "CCCC[C@H](NC(=O)O[C@@H]1C(=O)N(C(=O)OCc2ccccc2)CC1(C)C)C(=O)C(=O)N[C@H](C)c1ccccc1"
  IC50 [nM]: 24
- Compound structure string: "CCCC[C@H](NC(=O)O[C@@H]1C(=O)N(C(=O)c2ccno2)CC1(C)C)C(=O)C(=O)N[C@H](C)c1ccccc1"
  IC50 [nM]: 8.9

P = CCCC[C@H](NC(=O)O[C@@H]1C(=O)N(C(=O)c2nnc(C(F)(F)F)s2)CC1(C)C)C(=O)C(=O)Nc1cc[nH]n1
Q = CCCC[C@H](NC(=O)O[C@@H]1C(=O)N(Cc2ccccc2)CC1(C)C)C(=O)C(=O)N[C@H](C)c1ccccc1
R = CCCC[C@H](NC(=O)O[C@@H]1C(=O)N(C(=O)NCCc2ccccc2)CC1(C)C)C(=O)C(=O)N[C@H](C)c1ccccc1
S = CCCC[C@H](NC(=O)O[C@@H]1C(=O)N(C(=O)Cc2ccccc2)CC1(C)C)C(=O)C(=O)N[C@H](C)c1ccccc1
Request: Let's sort these by IC50, smallest first. Go ahead? Answer by listing the labels in the order asked for.
Result: P, S, R, Q
(P: 1 nM, S: 3 nM, R: 6.6 nM, Q: 21 nM)
